# ASSAY SYSTEM: PI3K C2b (Homo sapiens)
# Sequence (O00750 whole entry): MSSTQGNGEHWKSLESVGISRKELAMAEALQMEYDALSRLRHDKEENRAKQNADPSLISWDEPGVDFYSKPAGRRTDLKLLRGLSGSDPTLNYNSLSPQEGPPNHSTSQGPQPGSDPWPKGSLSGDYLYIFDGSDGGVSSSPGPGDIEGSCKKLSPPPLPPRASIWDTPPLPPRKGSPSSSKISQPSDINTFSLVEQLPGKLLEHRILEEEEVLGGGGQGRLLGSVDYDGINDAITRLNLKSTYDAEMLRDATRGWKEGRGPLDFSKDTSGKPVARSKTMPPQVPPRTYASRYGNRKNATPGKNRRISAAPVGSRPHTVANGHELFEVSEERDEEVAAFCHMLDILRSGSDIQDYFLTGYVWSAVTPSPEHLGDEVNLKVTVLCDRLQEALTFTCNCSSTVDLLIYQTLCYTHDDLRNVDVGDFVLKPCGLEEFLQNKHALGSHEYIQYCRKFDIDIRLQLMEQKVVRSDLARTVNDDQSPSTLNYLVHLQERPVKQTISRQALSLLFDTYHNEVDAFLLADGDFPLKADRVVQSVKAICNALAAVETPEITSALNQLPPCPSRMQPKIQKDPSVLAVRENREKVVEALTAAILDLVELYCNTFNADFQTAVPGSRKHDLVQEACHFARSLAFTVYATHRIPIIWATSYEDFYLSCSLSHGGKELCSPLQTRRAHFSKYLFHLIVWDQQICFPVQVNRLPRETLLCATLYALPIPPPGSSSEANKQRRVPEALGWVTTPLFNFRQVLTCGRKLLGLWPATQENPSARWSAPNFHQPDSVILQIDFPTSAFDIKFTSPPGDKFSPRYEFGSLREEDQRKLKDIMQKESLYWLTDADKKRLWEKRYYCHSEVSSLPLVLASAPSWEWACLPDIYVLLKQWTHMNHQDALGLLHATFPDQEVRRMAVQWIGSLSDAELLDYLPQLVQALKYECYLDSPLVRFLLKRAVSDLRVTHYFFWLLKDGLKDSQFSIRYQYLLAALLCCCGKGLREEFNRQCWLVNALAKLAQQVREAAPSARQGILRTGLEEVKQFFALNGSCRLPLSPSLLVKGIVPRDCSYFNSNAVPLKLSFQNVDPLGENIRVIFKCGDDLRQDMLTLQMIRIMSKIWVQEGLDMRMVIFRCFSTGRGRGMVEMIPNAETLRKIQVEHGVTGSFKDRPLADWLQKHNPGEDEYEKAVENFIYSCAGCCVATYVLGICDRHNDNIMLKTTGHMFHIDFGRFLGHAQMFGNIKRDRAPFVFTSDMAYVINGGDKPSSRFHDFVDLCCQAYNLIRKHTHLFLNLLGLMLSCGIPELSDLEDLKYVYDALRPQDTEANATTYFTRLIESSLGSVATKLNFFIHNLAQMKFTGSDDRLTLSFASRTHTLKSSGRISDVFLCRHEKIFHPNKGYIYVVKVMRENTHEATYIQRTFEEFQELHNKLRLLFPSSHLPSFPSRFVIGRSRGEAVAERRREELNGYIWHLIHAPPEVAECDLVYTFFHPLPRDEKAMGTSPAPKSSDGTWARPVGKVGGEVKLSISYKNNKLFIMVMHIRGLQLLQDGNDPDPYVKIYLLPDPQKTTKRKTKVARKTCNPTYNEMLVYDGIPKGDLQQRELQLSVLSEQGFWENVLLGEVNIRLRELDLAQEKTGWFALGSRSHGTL
REPORTED PROPERTY: IC50 (µM)
Give the value, in units of µM, as a plain number.

CCC(=O)Nc1nc(C)c(-c2ccc(OC)c(S(=O)(=O)Nc3ccc(O)cc3)c2)s1 [PT425] :: 0.132

Incoming: Please tell me: IC50 of COc1ccc(-c2sc(NC(=O)C3CCCC3)nc2C)cc1S(=O)(=O)Nc1ccc(O)cc1 [PT423] , system PI3K C2b (Homo sapiens)?
Outgoing: 0.028

Incoming: Please tell me: IC50 of CC(=O)Nc1nc(C)c(-c2ccc(Cl)c(S(=O)(=O)NCCO)c2)s1 [PIK93] , system PI3K C2b (Homo sapiens)?
Outgoing: 0.44

Incoming: Please tell me: IC50 of COc1ccc(-c2sc(NC(=O)C3CCCC3)nc2C)cc1S(=O)(=O)Nc1ccc(CC#N)cc1 [PT422] , system PI3K C2b (Homo sapiens)?
Outgoing: 0.645

Incoming: Please tell me: IC50 of CC(=O)Nc1nc(C)c(-c2ccc(Br)c(S(=O)(=O)Nc3ccc(CC#N)cc3)c2)s1 [PT416] , system PI3K C2b (Homo sapiens)?
Outgoing: 0.027

Incoming: Please tell me: IC50 of CCC(=O)Nc1nc(C)c(-c2ccc(OC)c(S(=O)(=O)Nc3ccc(CC#N)cc3)c2)s1 [PT424] , system PI3K C2b (Homo sapiens)?
Outgoing: 0.095

====

# ASSAY SYSTEM: p110γ (Homo sapiens, UniProt P48736)
# Sequence (P48736 whole entry, species assumed): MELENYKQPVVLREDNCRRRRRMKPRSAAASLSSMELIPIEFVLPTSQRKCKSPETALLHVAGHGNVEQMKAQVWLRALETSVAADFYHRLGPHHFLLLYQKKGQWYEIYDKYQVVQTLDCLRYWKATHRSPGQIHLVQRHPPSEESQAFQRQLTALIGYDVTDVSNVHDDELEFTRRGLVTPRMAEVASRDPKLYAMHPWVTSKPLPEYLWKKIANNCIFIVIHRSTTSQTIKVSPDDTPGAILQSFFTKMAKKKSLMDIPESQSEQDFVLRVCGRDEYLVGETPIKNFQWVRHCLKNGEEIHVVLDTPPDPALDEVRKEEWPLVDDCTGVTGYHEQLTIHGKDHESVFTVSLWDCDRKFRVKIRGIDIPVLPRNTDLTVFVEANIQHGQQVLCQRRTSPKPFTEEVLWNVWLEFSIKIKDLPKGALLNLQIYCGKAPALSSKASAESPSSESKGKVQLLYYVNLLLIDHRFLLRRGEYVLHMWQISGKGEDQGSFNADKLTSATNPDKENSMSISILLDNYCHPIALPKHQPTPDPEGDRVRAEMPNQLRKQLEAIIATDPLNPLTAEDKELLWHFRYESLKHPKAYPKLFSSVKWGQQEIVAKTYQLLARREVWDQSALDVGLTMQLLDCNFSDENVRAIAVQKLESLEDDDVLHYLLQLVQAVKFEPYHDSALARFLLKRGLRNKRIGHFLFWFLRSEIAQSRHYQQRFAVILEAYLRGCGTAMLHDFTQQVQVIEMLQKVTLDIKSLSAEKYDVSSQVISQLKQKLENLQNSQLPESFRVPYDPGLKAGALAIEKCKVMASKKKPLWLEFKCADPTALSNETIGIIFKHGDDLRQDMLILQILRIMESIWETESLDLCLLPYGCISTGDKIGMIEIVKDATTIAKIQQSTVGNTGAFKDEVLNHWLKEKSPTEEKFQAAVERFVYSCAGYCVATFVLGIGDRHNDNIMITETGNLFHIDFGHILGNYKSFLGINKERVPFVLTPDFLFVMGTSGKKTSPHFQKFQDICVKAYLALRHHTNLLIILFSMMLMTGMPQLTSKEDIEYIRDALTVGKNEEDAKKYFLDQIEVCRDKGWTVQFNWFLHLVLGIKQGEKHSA
Recorded measurements of log10 IC50, one per entry
Base-10 log of IC50, unit nM.

Example molecules with recorded log10 IC50:
CC(=O)Nc1nc(C)c(-c2ccc(Br)c(S(=O)(=O)NC(C)C)c2)s1 :: 0.78
COc1ccc(-c2sc(NC(=O)C3CCCC3)nc2C)cc1S(=O)(=O)Nc1ccc(O)cc1 :: 1.81
CC(=O)Nc1nc(C)c(-c2ccc(Cl)c(S(=O)(=O)Nc3ccccc3)c2)s1 :: 0.70

Consider the additional molecule presented here.
Incoming: Form field: reported log10 IC50 of COc1ccc(-c2sc(NC(C)=O)nc2C)cc1S(=O)(=O)NCCc1cccnc1
Outgoing: 1.60

====

# ASSAY SYSTEM: HA-tagged human PI4KIIIα (Homo sapiens, UniProt P42356)
# MEASUREMENT PROTOCOL: PI4KIIIα immunoprecipitate kinase assay with [γ-32P]-ATP
# Assay type: biochemical
# APPLIED CONDITIONS: PI4KIIIα; read-out: IC50 IIIa
For each record, check the reported IC50: if it is below 7 µM write Satisfied, else write Not satisfied.

# count of solved cases: 8
CCC(=O)Nc1nc(C)c(-c2ccc(OC)c(S(=O)(=O)Nc3ccc(O)cc3)c2)s1 [PT425] :: Satisfied
CCC(=O)Nc1nc(C)c(-c2ccc(OC)c(S(=O)(=O)Nc3ccc(CC#N)cc3)c2)s1 [PT424] :: Satisfied
CC(=O)Nc1nc(C)c(-c2ccc(Cl)c(S(N)(=O)=O)c2)s1 [PT45] :: Not satisfied
CC(=O)Nc1nc(C)c(-c2ccc(Cl)c(S(=O)(=O)Nc3ccc(F)cc3)c2)s1 [PT420] :: Not satisfied
CC(=O)Nc1nc(C)c(-c2ccc(Cl)c(S(=O)(=O)NC(C)C)c2)s1 [PT46] :: Not satisfied
COc1ccc(NS(=O)(=O)c2cc(-c3sc(NC(C)=O)nc3C)ccc2Cl)cc1F [PT421] :: Not satisfied
COc1ccc(-c2sc(NC(C)=O)nc2C)cc1S(=O)(=O)NCCN1CCOCC1 [PT44] :: Not satisfied
CC(=O)Nc1nc(C)c(-c2ccc(Br)c(S(=O)(=O)NC(C)C)c2)s1 [PT410] :: Not satisfied

Here is another molecule to look at.
Incoming: Strictly below 7 µM in IC50? COc1ccc(-c2sc(NC(C)=O)nc2C)cc1S(=O)(=O)Nc1ccc(CC#N)cc1 [PT414]
Outgoing: Satisfied

====

# ASSAY SYSTEM: p110α-p85 complex (Homo sapiens)
# Sequence (P42336 whole entry): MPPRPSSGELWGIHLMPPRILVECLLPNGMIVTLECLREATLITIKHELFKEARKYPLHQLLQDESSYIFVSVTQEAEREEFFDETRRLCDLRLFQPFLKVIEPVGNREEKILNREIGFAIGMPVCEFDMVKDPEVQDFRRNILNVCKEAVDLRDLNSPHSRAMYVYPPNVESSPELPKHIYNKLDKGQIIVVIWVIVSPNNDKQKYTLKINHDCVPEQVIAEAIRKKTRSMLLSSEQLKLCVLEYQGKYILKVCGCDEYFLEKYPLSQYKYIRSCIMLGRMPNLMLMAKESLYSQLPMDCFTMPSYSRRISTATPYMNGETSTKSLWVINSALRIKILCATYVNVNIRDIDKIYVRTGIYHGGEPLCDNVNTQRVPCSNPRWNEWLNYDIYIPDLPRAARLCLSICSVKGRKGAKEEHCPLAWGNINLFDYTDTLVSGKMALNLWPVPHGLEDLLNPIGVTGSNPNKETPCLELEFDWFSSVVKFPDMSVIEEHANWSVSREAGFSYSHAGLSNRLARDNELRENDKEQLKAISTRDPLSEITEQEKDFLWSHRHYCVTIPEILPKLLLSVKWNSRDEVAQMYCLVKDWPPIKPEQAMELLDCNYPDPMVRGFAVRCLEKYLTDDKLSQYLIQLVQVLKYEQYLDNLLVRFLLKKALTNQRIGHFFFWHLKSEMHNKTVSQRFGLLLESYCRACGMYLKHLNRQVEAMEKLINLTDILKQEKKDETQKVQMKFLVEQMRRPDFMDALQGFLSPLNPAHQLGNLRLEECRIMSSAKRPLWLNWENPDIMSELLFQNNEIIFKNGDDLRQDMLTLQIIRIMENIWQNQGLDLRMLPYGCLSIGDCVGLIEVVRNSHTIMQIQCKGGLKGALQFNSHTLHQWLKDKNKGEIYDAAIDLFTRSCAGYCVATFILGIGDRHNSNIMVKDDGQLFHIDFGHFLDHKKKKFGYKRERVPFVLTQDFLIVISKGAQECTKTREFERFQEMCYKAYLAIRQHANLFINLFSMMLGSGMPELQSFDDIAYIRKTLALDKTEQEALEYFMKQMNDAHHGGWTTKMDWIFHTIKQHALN
# Sequence (P27986 whole entry partner): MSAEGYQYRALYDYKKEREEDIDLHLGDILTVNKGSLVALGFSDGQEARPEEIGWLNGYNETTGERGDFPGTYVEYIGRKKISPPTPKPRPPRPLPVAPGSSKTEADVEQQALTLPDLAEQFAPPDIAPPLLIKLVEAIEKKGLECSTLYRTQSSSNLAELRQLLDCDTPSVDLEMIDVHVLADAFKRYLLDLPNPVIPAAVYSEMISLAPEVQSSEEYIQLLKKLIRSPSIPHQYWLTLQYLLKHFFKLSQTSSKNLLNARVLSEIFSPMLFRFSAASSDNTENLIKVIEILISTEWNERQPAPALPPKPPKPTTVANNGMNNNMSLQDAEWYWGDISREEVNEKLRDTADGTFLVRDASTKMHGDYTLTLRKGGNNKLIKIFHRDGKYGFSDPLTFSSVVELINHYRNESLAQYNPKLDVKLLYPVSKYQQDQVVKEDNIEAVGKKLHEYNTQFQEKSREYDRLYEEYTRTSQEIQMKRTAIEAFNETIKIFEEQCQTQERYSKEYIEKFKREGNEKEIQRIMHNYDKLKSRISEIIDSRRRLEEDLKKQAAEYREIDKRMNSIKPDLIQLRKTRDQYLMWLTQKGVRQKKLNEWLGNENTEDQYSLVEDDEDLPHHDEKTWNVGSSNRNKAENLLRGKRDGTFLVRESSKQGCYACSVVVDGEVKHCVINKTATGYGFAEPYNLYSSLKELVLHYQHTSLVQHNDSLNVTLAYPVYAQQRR
# MEASUREMENT PROTOCOL: PI3-kinase p110α-p85 complex lipid kinase assay
# APPLIED CONDITIONS: read-out: IC50 PI3K 110a
pIC50: −log10 of the molar value.
The threshold is inclusive: pIC50 of exactly 7 counts as met; values below receive not met.

COc1ccc(-c2sc(NC(C)=O)nc2C)cc1S(=O)(=O)Nc1ccc(CC#N)cc1 [PT414] :: not met
CC(=O)Nc1nc(C)c(-c2ccc(Br)c(S(=O)(=O)Nc3ccc(CC#N)cc3)c2)s1 [PT416] :: met
CC(=O)Nc1nc(C)c(-c2ccc(Cl)c(S(=O)(=O)Nc3ccc(O)cc3)c2)s1 [PT419] :: met
CC(=O)Nc1nc(C)c(-c2ccc(Cl)c(S(=O)(=O)Nc3ccc(F)cc3)c2)s1 [PT420] :: met

Incoming: Check the entry COc1ccc(-c2sc(NC(C)=O)nc2C)cc1S(=O)(=O)NCCN1CCOCC1 [PT44] : does pIC50 equal or exceed 7?
Outgoing: not met

Incoming: Check the entry COc1ccc(-c2sc(NC(C)=O)nc2C)cc1S(=O)(=O)NCCc1cccnc1 [PT417] : does pIC50 equal or exceed 7?
Outgoing: not met

Incoming: Check the entry CC(=O)Nc1nc(C)c(-c2ccc(Br)c(S(=O)(=O)NCCc3ccc(O)cc3)c2)s1 [PT411] : does pIC50 equal or exceed 7?
Outgoing: met

Incoming: Check the entry COc1ccc(NS(=O)(=O)c2cc(-c3sc(NC(C)=O)nc3C)ccc2Cl)cc1F [PT421] : does pIC50 equal or exceed 7?
Outgoing: met

====

This document collects IC50 values reported for PI3K C2a (Homo sapiens).

CC(=O)Nc1nc(C)c(-c2ccc(Cl)c(S(=O)(=O)NCCO)c2)s1 [PIK93] :: > 10 µM
COc1ccc(-c2sc(NC(=O)C3CCCC3)nc2C)cc1S(=O)(=O)Nc1ccc(CC#N)cc1 [PT422] :: > 10 µM

Incoming: Please tell me: IC50 of CCC(=O)Nc1nc(C)c(-c2ccc(OC)c(S(=O)(=O)Nc3ccc(O)cc3)c2)s1 [PT425] , system PI3K C2a (Homo sapiens)?
Outgoing: 7.8 µM

Incoming: Please tell me: IC50 of COc1ccc(-c2sc(NC(=O)C3CCCC3)nc2C)cc1S(=O)(=O)Nc1ccc(O)cc1 [PT423] , system PI3K C2a (Homo sapiens)?
Outgoing: > 10 µM

Incoming: Please tell me: IC50 of CCC(=O)Nc1nc(C)c(-c2ccc(OC)c(S(=O)(=O)Nc3ccc(CC#N)cc3)c2)s1 [PT424] , system PI3K C2a (Homo sapiens)?
Outgoing: > 10 µM

Incoming: Please tell me: IC50 of CC(=O)Nc1nc(C)c(-c2ccc(Br)c(S(=O)(=O)Nc3ccc(CC#N)cc3)c2)s1 [PT416] , system PI3K C2a (Homo sapiens)?
Outgoing: > 10 µM

====

# MEASUREMENT PROTOCOL: Cell toxicity (CC50), Table 3
# Type: cell-based
# APPLIED CONDITIONS: human, Huh7.5 cells
REPORTED PROPERTY: CC50
Write down the value, and be sure its unit follows.

COc1ccc(-c2sc(NC(C)C)nc2C)cc1S(=O)(=O)Nc1ccc(O)cc1 [AB3913] :: 59 µM

Incoming: Form field: reported CC50 of COc1ccc(-c2sc(NC(=O)C3CCCC3)nc2C)cc1S(=O)(=O)NC1CCNC(C)C1.O=C(O)C(F)(F)F (stereo not shown) [AB3756]
Outgoing: 44 µM

Incoming: Form field: reported CC50 of COc1ccccc1NS(=O)(=O)c1cc(-c2sc(NC3CCCCC3)nc2C)ccc1OC [AB4025]
Outgoing: 13 µM

Incoming: Form field: reported CC50 of COc1ccc(-c2sc(NC(=O)C3CCOCC3)nc2C)cc1S(=O)(=O)Nc1ccc(O)cc1 [AB3737]
Outgoing: 50 µM

====

# MEASUREMENT PROTOCOL: Cytotoxicity CC50 in HeLa cells
# Format: cell-based
# APPLIED CONDITIONS: human
REPORTED PROPERTY: CC50
Write down the value, and be sure its unit follows.

Incoming: Form field: reported CC50 of COc1ccc(-c2sc(NC(=O)C3CCCC3)nc2C)cc1S(=O)(=O)Nc1ccc(O)cc1
Outgoing: 12.6 µM

====

# MEASUREMENT PROTOCOL: in vitro
# Type: in vitro ADME
# APPLIED CONDITIONS: human, microsomes
Recorded measurements of half-life, one per entry
Give the value, in units of min, as a plain number.

COc1ccc(-c2sc(NC3CCCCC3)nc2C)cc1S(=O)(=O)Nc1cccc(C)c1.O=C(O)C(F)(F)F [AB4098] :: 17.9
COc1ccc(-c2sc(NC(=O)NCC(C)C)nc2C)cc1S(=O)(=O)Nc1ccc(O)cc1 [AB3832] :: 11.1
COc1ccc(NS(=O)(=O)c2cc(-c3sc(NC4CCCCC4)nc3C)ccc2OC)c(C)c1.O=C(O)C(F)(F)F [AB4021] :: 3.9
COc1ccc(-c2sc(NC(=O)C3CCCC3)nc2C)cc1S(=O)(=O)Nc1ccc(CO)cc1 [AB3755] :: 23.6
COc1ccc(-c2sc(NC3CCCCC3)nc2C)cc1S(=O)(=O)Nc1ccc(O)cc1 [AB3867] :: 33.1
COc1cc(C)c(NS(=O)(=O)c2cc(-c3sc(NC(=O)C4CCCC4)nc3C)ccc2OC)cn1.O=C(O)C(F)(F)F [AB3663] :: 27.5

Consider the additional compound presented here.
Incoming: Form field: reported half-life of COc1ccc(-c2sc(NC(=O)C3CCCC3)nc2C)cc1S(=O)(=O)Nc1cnc(Cl)c(C)c1.O=C(O)C(F)(F)F [AB3862]
Outgoing: 27.3
